- Tested on: OVCAR-5
- Test name: Growth inhibition of human OVCAR5 cells at 10^-5 M after 48 hrs by Sulforhodamine B assay relative to control
- Assay type: functional
- Recorded conditions: OVCAR-5, 48 h, read-out: GI
Observed property: inhibition of growth at 10 µM (%)
Report only the number, with the unit % understood.

Examples from the recorded data:
Clc1nc(-c2ccncc2)nc2sc3c(c12)CCCCCC3
-5.24
CN1CCN(c2nc(-c3ccccn3)nc3sc4c(c23)CCCCCC4)CC1
2.04
NNc1nc(-c2ccncc2)nc2sc3c(c12)CCCCCC3
-0.54

Look up and state reported inhibition of growth at 10 µM for COc1ccc(N2CCN(c3nc(-c4ccncc4)nc4sc5c(c34)CCCCCC5)CC2)cc1
2.26

Look up and state reported inhibition of growth at 10 µM for Clc1nc(-c2ccccn2)nc2sc3c(c12)CCCCCC3
-7.94

---

- Tested on: MOLT-4
- Test name: Growth inhibition of human MOLT4 cells at 10^-5 M after 48 hrs by Sulforhodamine B assay relative to control
- Type: functional
- Recorded conditions: MOLT-4, 48 h, read-out: GI
Kindly return TRUE if reported inhibition of growth at 10 µM is no lower than 20%; return FALSE if it is lower.

Please review the entries below; each comes with its answer.
c1ccc(N2CCN(c3nc(-c4ccncc4)nc4sc5c(c34)CCCCCC5)CC2)cc1
FALSE
CN1CCN(c2nc(-c3ccccn3)nc3sc4c(c23)CCCCCC4)CC1
FALSE
c1cc(-c2nc(N3CCOCC3)c3c4c(sc3n2)CCCCCC4)ccn1
TRUE

Form field: inhibition of growth at 10 µM at least 20%? Entry: COc1ccc(N2CCN(c3nc(-c4ccncc4)nc4sc5c(c34)CCCCCC5)CC2)cc1
FALSE

Form field: inhibition of growth at 10 µM at least 20%? Entry: NNc1nc(-c2ccncc2)nc2sc3c(c12)CCCCCC3
FALSE

Form field: inhibition of growth at 10 µM at least 20%? Entry: Clc1nc(-c2ccccn2)nc2sc3c(c12)CCCCCC3
TRUE

Form field: inhibition of growth at 10 µM at least 20%? Entry: c1ccc(N2CCN(c3nc(-c4ccccn4)nc4sc5c(c34)CCCCCC5)CC2)cc1
TRUE

Form field: inhibition of growth at 10 µM at least 20%? Entry: Clc1nc(-c2ccncc2)nc2sc3c(c12)CCCCCC3
FALSE

---

- System: HCT-15
- Test name: Growth inhibition of human HCT15 cells at 10^-5 M after 48 hrs by Sulforhodamine B assay relative to control
- Assay type: functional
- Recorded conditions: HCT-15, 48 h, read-out: GI
Kindly return YES if reported inhibition of growth at 10 µM is no lower than 7%; return NO if it is lower.

Please review the entries below; each comes with its answer.
CN1CCN(c2nc(-c3ccccn3)nc3sc4c(c23)CCCCCC4)CC1
NO
c1cc(-c2nc(N3CCOCC3)c3c4c(sc3n2)CCCCCC4)ccn1
YES
Clc1nc(-c2ccncc2)nc2sc3c(c12)CCCCCC3
NO
NNc1nc(-c2ccncc2)nc2sc3c(c12)CCCCCC3
YES
Clc1nc(-c2ccccn2)nc2sc3c(c12)CCCCCC3
YES

Form field: inhibition of growth at 10 µM at least 7%? Entry: c1ccc(N2CCN(c3nc(-c4ccccn4)nc4sc5c(c34)CCCCCC5)CC2)cc1
YES

Form field: inhibition of growth at 10 µM at least 7%? Entry: c1ccc(N2CCN(c3nc(-c4ccncc4)nc4sc5c(c34)CCCCCC5)CC2)cc1
NO

Form field: inhibition of growth at 10 µM at least 7%? Entry: COc1ccc(N2CCN(c3nc(-c4ccncc4)nc4sc5c(c34)CCCCCC5)CC2)cc1
YES
